- STUDY TARGET: Factor Xa (Bos taurus, UniProt P00743)
- Sequence (P00743 41-180 limits assumed): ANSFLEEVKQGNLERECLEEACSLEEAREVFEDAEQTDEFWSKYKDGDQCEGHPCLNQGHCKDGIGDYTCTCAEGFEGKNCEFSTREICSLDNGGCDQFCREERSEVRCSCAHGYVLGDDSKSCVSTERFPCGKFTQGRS
- ASSAY METHOD TEXT: Inhibition of Factor Xa in the chromogenic substrate assay (blood coagulation inhibition)
- Assay type: biochemical
- RUN PARAMETERS: chromogenic substrate S-2222, antithrombin III, plasma; read-out: Anticoagulative Activity IC50 Factor Xa
pIC50: −log10 of the molar value.

LINE NOTATION	pIC50
O=C(NC[C@H](OS(=O)(=O)O)[C@@H](OS(=O)(=O)O)[C@H](OS(=O)(=O)O)[C@@H](COS(=O)(=O)O)OS(=O)(=O)O)c1ccc(S(=O)(=O)c2ccc(C(=O)NC[C@H](OS(=O)(=O)O)[C@@H](OS(=O)(=O)O)[C@H](OS(=O)(=O)O)[C@@H](COS(=O)(=O)O)OS(=O)(=O)O)cc2)cc1	< 3.16

---

Listed molecules paired with reported pIC50
- STUDY TARGET: thrombin (Homo sapiens)
- Construct: purchased Roche, Basle (Thrombin Reagent)
- ASSAY METHOD TEXT: biochemical
- Format: biochemical
- RUN PARAMETERS: chromogenic substrate S-2238, antithrombin III, plasma, pH 8.4, 37° C.; read-out: Anticoagulative Activity IC50 Thrombin
pIC50: −log10 of the molar value.
METRIC NAME: pIC50

LINE NOTATION	STUDY TARGET	RESULT
O=C(Nc1ccc(OC[C@@H](OS(=O)(=O)O)[C@H](OS(=O)(=O)O)[C@H](OS(=O)(=O)O)[C@H](COS(=O)(=O)O)OS(=O)(=O)O)cc1)Nc1ccc(OC[C@@H](OS(=O)(=O)O)[C@H](OS(=O)(=O)O)[C@H](OS(=O)(=O)O)[C@H](COS(=O)(=O)O)OS(=O)(=O)O)cc1	thrombin (Homo sapiens)	< 3.14
O=C(Nc1ccc(OC[C@@H](OS(=O)(=O)O)[C@H](OS(=O)(=O)O)[C@@H](COS(=O)(=O)O)OS(=O)(=O)O)cc1)c1cccc(C(=O)Nc2ccc(OC[C@@H](OS(=O)(=O)O)[C@H](OS(=O)(=O)O)[C@@H](COS(=O)(=O)O)OS(=O)(=O)O)cc2)c1	thrombin (Homo sapiens)	< 3.10
O=C(NC[C@H](OS(=O)(=O)O)[C@@H](OS(=O)(=O)O)[C@H](OS(=O)(=O)O)[C@@H](COS(=O)(=O)O)OS(=O)(=O)O)c1ccc(/C=C\c2ccc(C(=O)NC[C@H](OS(=O)(=O)O)[C@@H](OS(=O)(=O)O)[C@H](OS(=O)(=O)O)[C@@H](COS(=O)(=O)O)OS(=O)(=O)O)cc2)cc1	thrombin (Homo sapiens)	< 3.14
O=C(NC[C@H](OS(=O)(=O)O)[C@@H](OS(=O)(=O)O)[C@H](OS(=O)(=O)O)[C@@H](COS(=O)(=O)O)OS(=O)(=O)O)c1ccc(Cc2ccc(C(=O)NC[C@H](OS(=O)(=O)O)[C@@H](OS(=O)(=O)O)[C@H](OS(=O)(=O)O)[C@@H](COS(=O)(=O)O)OS(=O)(=O)O)cc2)cc1	thrombin (Homo sapiens)	< 3.14
Cc1c(NC(=O)NC[C@H](OS(=O)(=O)O)[C@@H](OS(=O)(=O)O)[C@H](OS(=O)(=O)O)[C@@H](COS(=O)(=O)O)OS(=O)(=O)O)cccc1NC(=O)NC[C@H](OS(=O)(=O)O)[C@@H](OS(=O)(=O)O)[C@H](OS(=O)(=O)O)[C@@H](COS(=O)(=O)O)OS(=O)(=O)O	thrombin (Homo sapiens)	< 3.13
O=C(/C=C\C(=O)Nc1cc(COc2ccc(-c3ccccc3)cc2)cc(NC(=O)/C=C\C(=O)NC[C@H](OS(=O)(=O)O)[C@@H](OS(=O)(=O)O)[C@H](OS(=O)(=O)O)[C@@H](COS(=O)(=O)O)OS(=O)(=O)O)c1)NC[C@H](OS(=O)(=O)O)[C@@H](OS(=O)(=O)O)[C@H](OS(=O)(=O)O)[C@@H](COS(=O)(=O)O)OS(=O)(=O)O	thrombin (Homo sapiens)	< 3.21
O=S(=O)(O)OC[C@@H](OS(=O)(=O)O)[C@@H](OS(=O)(=O)O)[C@H](OS(=O)(=O)O)[C@H](CNS(=O)(=O)c1cccc2c(S(=O)(=O)NC[C@H](OS(=O)(=O)O)[C@@H](OS(=O)(=O)O)[C@H](OS(=O)(=O)O)[C@@H](COS(=O)(=O)O)OS(=O)(=O)O)cccc12)OS(=O)(=O)O	thrombin (Homo sapiens)	< 3.15
